Recorded PGI d5 (relative PGI release), one value per entry.
- Tested on: E. multilocularis metacestode vesicles
- test protocol: Phosphoglucose isomerase (PGI) release assay (damage-marker release) on metacestode vesicles
- Type: cell-based, Echinococcus multilocularis
- test context: confirmation screen, 10 μM, triplicates, mean, 5 days
Your answer is read as %, so omit the unit and give the number.

input: So what's the measured PGI d5 (relative PGI release) for this one? Cc1nc2ccc(Oc3ccccc3)cc2c2c1CCN2CCc1ccccc1 [MMV1634399]
output: 0.85

input: So what's the measured PGI d5 (relative PGI release) for this one? CCC(C)NCC(O)Cn1c2ccc(Cl)cc2c2cc(Cl)ccc21 (stereo not drawn) [MMV1578570]
output: -0.08

input: So what's the measured PGI d5 (relative PGI release) for this one? COC(=O)Nc1nc2ccccc2[nH]1 [carbendazim]
output: 5.10

input: So what's the measured PGI d5 (relative PGI release) for this one? CCCCC(CC)CNC(=N)NC(=N)NCCCCCCNC(=N)NC(=N)NCC(CC)CCCC (stereo not drawn) [alexidine, reference compound]
output: 32.36

input: So what's the measured PGI d5 (relative PGI release) for this one? CC1CN(c2ncnc3c2c(-c2ccccc2)cn3-c2ccc(F)cc2)CC(C)O1 (stereo not drawn) [MMV093250]
output: 0.08

input: So what's the measured PGI d5 (relative PGI release) for this one? O=S(=O)(Nc1cccc2cccnc12)c1ccccc1 [MMV1578890]
output: 0.50

input: So what's the measured PGI d5 (relative PGI release) for this one? O=c1nc(N2CCN(CC3CCCCC3)CC2)sc2c([N+](=O)[O-])cc(C(F)(F)F)cc12 [MMV1578885]
output: -0.21

input: So what's the measured PGI d5 (relative PGI release) for this one? Nc1nc(=O)c(Br)c(-c2ccccc2)[nH]1 [MMV690540]
output: 0.19

input: So what's the measured PGI d5 (relative PGI release) for this one? Cc1ccc(C)c(OCCCCCCN2C[C@H](O)[C@@H](O)[C@H](O)[C@H]2CO)c1 [MMV1634401]
output: 1.51

====

- Tested on: E. multilocularis metacestode vesicles
- test protocol: Phosphoglucose isomerase (PGI) release assay (damage-marker release) on metacestode vesicles
- Type: cell-based, Echinococcus multilocularis
- test context: overview screen, 10 μM, singlets, 12 days, relative to 0.1 % Triton X-100, DMSO subtracted
Recorded PGI d12 (relative PGI release), one value per entry.
Your answer is read as %, so omit the unit and give the number.

• O=C(CC1Sc2ncnn2C1=O)Nc1ccc(Br)cc1 (stereo not drawn) = -20.0728
• CC(C)n1cnc2c(NCc3ccccc3)nc(NCc3ccccc3)nc21 = 58.0803

input: So what's the measured PGI d12 (relative PGI release) for this one? `O=C(CCCC(F)(F)F)N1CCC(c2nc(-c3nccs3)no2)CC1`
output: 59.8611

input: So what's the measured PGI d12 (relative PGI release) for this one? CCC(C)n1ncn(-c2ccc(N3CCN(c4ccc(OCC5COC(Cn6cncn6)(c6ccc(Cl)cc6Cl)O5)cc4)CC3)cc2)c1=O (stereo not drawn)
output: -24.1326

input: So what's the measured PGI d12 (relative PGI release) for this one? `CCc1cc(CCC(=O)Nc2ccccc2O)c(=O)[nH]c1C`
output: -17.9747

input: So what's the measured PGI d12 (relative PGI release) for this one? `O=C1C=C(c2ccccc2)S(=O)(=O)c2ccccc21`
output: 0.7153

input: So what's the measured PGI d12 (relative PGI release) for this one? `CC(C)Nc1nc2cc(Cl)c(Cl)cc2n1[C@H]1O[C@@H](CO)[C@H](O)[C@@H]1O`
output: -0.5297

input: So what's the measured PGI d12 (relative PGI release) for this one? CCOC(=O)Nc1cc(NC(C)CC(C)CN(CC)CC)c2nc(-c3ccccc3)c(-c3ccccc3)nc2n1 (stereo not drawn)
output: -20.9085

input: So what's the measured PGI d12 (relative PGI release) for this one? COc1cc(Cc2cnc(N)nc2N)c2c(c1OC)OC(C1CC1)C=C2 (stereo not drawn)
output: -1.956

input: So what's the measured PGI d12 (relative PGI release) for this one? `C[C@H]1CC[C@@]2(O)C(C)(C)[C@@H]3CC[C@@]2(C)[C@H]1C3`
output: -7.5984

input: So what's the measured PGI d12 (relative PGI release) for this one? `OB1OCc2cc(Cl)ccc21`
output: -12.2339

input: So what's the measured PGI d12 (relative PGI release) for this one? CCc1nc(N)nc(N)c1C#CC(C)c1cc(OC)cc(-c2ccncc2)c1 (stereo not drawn)
output: 33.6502

input: So what's the measured PGI d12 (relative PGI release) for this one? `CNc1nc(=O)[nH]cc1F`
output: -25.8676

input: So what's the measured PGI d12 (relative PGI release) for this one? `N[C@H](CCC(=O)N[C@@H](Cc1c[nH]c2ccccc12)C(=O)O)C(=O)O`
output: -0.6563

input: So what's the measured PGI d12 (relative PGI release) for this one? CCCC1(C2CC2)c2cc(Cl)ccc2NC(=O)N1C (stereo not drawn)
output: 0.236

input: So what's the measured PGI d12 (relative PGI release) for this one? `CC[C@@H]1C(=O)OC[C@@H]1Cc1cncn1C.Cl`
output: -7.265

input: So what's the measured PGI d12 (relative PGI release) for this one? C[C@H](NC(CC(=O)c1ccccc1C(F)(F)F)C(=O)O)c1ccccc1 (stereo partly drawn)
output: -4.896

input: So what's the measured PGI d12 (relative PGI release) for this one? `COc1c(NC(=O)[C@H]2CC[C@@H](COc3ccc([N+](=O)[O-])cc3)CC2)c(F)cc2c(=O)c(C(=O)O)cn(C3CC3)c12`
output: -11.0947

====

Recorded PGI d12 (relative PGI release), one value per entry.
- Tested on: E. multilocularis metacestode vesicles
- test protocol: Phosphoglucose isomerase (PGI) release assay (damage-marker release) on metacestode vesicles
- Assay type: cell-based, Echinococcus multilocularis
- test context: overview screen, 10 μM, singlets, 12 days, relative to 0.1 % Triton X-100, DMSO subtracted
Your answer is read as %, so omit the unit and give the number.

Solved entries:
* O=C(O)CSc1cc(NS(=O)(=O)c2cccc3cccnc23)c2ccccc2c1O | 0.539
* Nc1cc(-c2nc3ccccc3[nH]2)n[nH]c1=O | -4.832
* C(=C\c1nc2ccccc2[nH]1)/c1ccc2c(c1)OCO2 | -10.1943
* O=S(=O)(Nc1ccc(-n2cccc2)cc1)c1ccc(Cl)c(Cl)c1 | -9.692
* O=C1NC(=S)N/C1=C\c1cc(Br)cc(Br)c1O | -5.575

We now examine a further molecule.
input: So what's the measured PGI d12 (relative PGI release) for this one? `CC#C[C@]1(O)CC[C@H]2[C@@H]3CCC4=CC(=O)CCC4=C3[C@@H](c3ccc(N(C)C)cc3)C[C@@]21C`
output: -0.6398

====

- Test system: E. multilocularis metacestode vesicles
- test protocol: Phosphoglucose isomerase (PGI) release assay (damage-marker release) on metacestode vesicles
- Type: cell-based, Echinococcus multilocularis
- test context: overview screen, 10 μM, singlets, 12 days, relative to 0.1 % Triton X-100, DMSO subtracted
Threshold-based label: PGI d12 (relative PGI release) under -10% gives Criterion met, PGI d12 (relative PGI release) not under -10% gives Criterion not met.

• COc1ccccc1NC(=O)c1ccccc1Sc1ccc([N+](=O)[O-])cc1 [MMV1580484] = Criterion not met

input: In plain terms, does CCc1ccc(C2CC(C(F)(F)F)n3ncc(C(=O)NCc4ccc(OC)cc4)c3N2)cc1 (stereo not shown) [MMV831201] come in under -10% for PGI d12 (relative PGI release)?
output: Criterion not met

input: In plain terms, does CCn1cc(C(=O)O)c(=O)c2cc(F)c(N3CCNC(C)C3)c(F)c21.Cl (stereo not shown) [MMV002350] come in under -10% for PGI d12 (relative PGI release)?
output: Criterion not met

input: In plain terms, does NCC(=O)Nc1ccc(-n2nc(C(F)(F)F)cc2-c2ccc3c(ccc4ccccc43)c2)cc1 [MMV1578560] come in under -10% for PGI d12 (relative PGI release)?
output: Criterion not met

input: In plain terms, does CCc1cc(O)c(Oc2cccnc2N)cc1F [MMV1580854] come in under -10% for PGI d12 (relative PGI release)?
output: Criterion met

input: In plain terms, does CONC(=N)c1ccc(-c2ccc(-c3ccc(C(=N)NOC)cc3)o2)cc1 [MMV000059] come in under -10% for PGI d12 (relative PGI release)?
output: Criterion met

input: In plain terms, does N#Cc1cc([N+](=O)[O-])ccc1Oc1ccccc1Cl [MMV1580800] come in under -10% for PGI d12 (relative PGI release)?
output: Criterion not met

input: In plain terms, does COc1cc(Cc2cnc(N)nc2N)cc(OC)c1OC [MMV000028] come in under -10% for PGI d12 (relative PGI release)?
output: Criterion met

input: In plain terms, does O=C(CCc1ccc2c(c1)OCO2)NCc1ccc(-c2ccccc2F)cc1 [MMV1782110] come in under -10% for PGI d12 (relative PGI release)?
output: Criterion met

input: In plain terms, does O=C(/C=C/n1cnc(-c2cc(C(F)(F)F)cc(C(F)(F)F)c2)n1)NNc1cnccn1 [MMV1593517] come in under -10% for PGI d12 (relative PGI release)?
output: Criterion met

input: In plain terms, does CC(C)(C)NC(=O)[C@@H]1C[C@@H]2CCCC[C@@H]2CN1C[C@@H](O)[C@H](Cc1ccccc1)NC(=O)[C@H](CC(N)=O)NC(=O)c1ccc2ccccc2n1 [MMV637879] come in under -10% for PGI d12 (relative PGI release)?
output: Criterion met

input: In plain terms, does CC(C)N(c1cc(-c2ccccc2)sc1C(=O)O)C(=O)[C@H]1CC[C@H](C)CC1 [MMV1634388] come in under -10% for PGI d12 (relative PGI release)?
output: Criterion not met

input: In plain terms, does CCOCc1nc2c(N)nc3ccccc3c2n1CC(C)(C)O [MMV690547] come in under -10% for PGI d12 (relative PGI release)?
output: Criterion not met
